target: Nuclear receptor subfamily 1 group I member 2 (Rattus norvegicus); assay: qHTS assay for small molecule activators of the rat pregnane X receptor (rPXR) signaling pathway (AID 651751); details: rPXR reporter cells, luciferase (One-Glo), 24 h; further: 0% is about no effect
Activity calls are given as the source filed them. How the calls were made is not given here.
property: max response

What the record says about `CCC[CH2][Sn]([Cl])([Cl])[CH2]CCC` : max response is -14.6% (inactive)

The molecule listed as C=C(C)C(=O)OCC(CC)CCCC (centres undefined) has a reported max response of -1.07% (inactive)

The recorded max response for entry CCOP(=S)(OCC)OC(Cl)C(Cl)(Cl)Cl (centres undefined) equals 0.487% (inactive)

Item: `COC(=O)c1ccccc1S(=O)(=O)NC(=O)Nc1nc(C)nc(OC)n1` | max response: -8.23% (inactive)

----------
Task for the reader: assign each of the following molecules its reported max response.
assay: qHTS assay for small molecule agonists of retinoid X receptor alpha signaling (AID 588544); conditions: HEK293T RXRa-UAS-bla, beta-lactamase reporter, 18 h; 530 nm emission
Results filed as inconclusive are left out.
Reply numerically in %, unit not repeated.

Entry CC(C)=CC1[C@H](C(=O)OCc2cccc(Oc3ccccc3)c2)C1(C)C (some centres undefined) , max response reported as -6.27

For `COC(=O)c1ccccc1S(=O)(=O)NC(=O)N(C)c1nc(C)nc(OC)n1` the molecule record lists max response as -6.9

Consider `COc1nc(C)nc(NC(=O)NS(=O)(=O)c2ccccc2Cl)n1` . Its measured max response is -7.69

Lab note: `O=[N+]([O-])C(Br)Br` gave max response of -3.79

Form field max response, entry `N#CCNC(=O)c1cnccc1C(F)(F)F` : -4.19

The molecule CCOP(=O)(SC(C)CC)SC(C)CC (centres undefined) showed max response equal to -25

Field max response (entry `COC(C)(C)CCC[C@H](C)C/C=C/C(C)=C/C(=O)OC(C)C` ) reads 10.5

Input `CCOP(=S)(OCC)SCC(=O)NC(C)C` . Output max response: -3.21

Value of measured max response for the entry `[CH3][Sn]([Cl])([Cl])[Cl]` : -11.9

Just so you know, measured max response for `C/C(=N\C(N)=O)N(C)Cc1ccc(Cl)nc1` came out at -8.24

The molecule listed as CC1(C)CCC(Cc2ccc(Cl)cc2)C1(O)Cn1cncn1 (centres undefined) has a reported max response of 16.6

Record summary for `C=CCC1=C(C)[C@@H](OC(=O)[C@@H]2[C@@H](C=C(C)C)C2(C)C)CC1=O` : reported max response = 6.67

The molecule CCCCC(CC)C(=O)Cl (centres undefined) showed max response equal to -20.2

Please fill in: max response reported for `CC(C)(C)C(=O)[C@@H](Oc1ccc(Cl)cc1)n1cncn1` = 9.03

What the record says about `C=CC(=O)OCCCCCC(C)C` : max response is -13.5

// recorded max response for Cc1cc(Cl)ccc1OC(C)C(=O)O (centres undefined) : -5.5

The recorded max response for `Clc1ccc([C@@]2(Cn3cncn3)C[C@H](Br)CO2)c(Cl)c1` is -2.9

Sample `O=C(O)[C@@H]1[C@H](C(=O)O)[C@@]2(Cl)C(Cl)=C(Cl)[C@]1(Cl)C2(Cl)Cl` ; max response observed: -1.73

Reported max response for `C1=Cc2cccc3cccc1c23` was -12.5

Record `CNC(=O)Oc1ccc(N(C)C)c(C)c1` . Reported max response: -30.4

Lookup result for CCCCC(CC)CO[N+](=O)[O-] (centres undefined) ; measured max response: -0.882

Form field max response, entry `CNC(=O)O/N=C/C(C)(C)S(C)(=O)=O` : -16.6

max response reported for this molecule `CN(C)P(=O)(N(C)C)N(C)C` : -16.8

Given item `O=S(=O)(c1ccc(O)cc1)c1ccc(O)cc1` , the value recorded as its max response is -2.49

Documented max response of `OC(c1ccc(Cl)cc1)(c1ccc(Cl)cc1)C(Cl)(Cl)Cl` : -15

Recorded result, `C[N+]1(C)CCCCC1` , max response: -8.78

Form: molecule = `COc1nc(C)nc(NC(=O)NS(=O)(=O)c2ccccc2CCC(F)(F)F)n1` ; max response = -27.4

Kindly note the recorded max response for `C=CCOC(=O)C(C)(C)OC(=O)c1cc(-n2c(=O)cc(C(F)(F)F)n(C)c2=O)ccc1Cl` , which is -7.31

Query `CCc1ccc(C(=O)NN(C(=O)c2cc(C)cc(C)c2)C(C)(C)C)cc1` yields max response of 1.33

// O=C(NC(=O)c1c(F)cccc1F)Nc1ccc(OC(F)(F)C(F)OC(F)(F)F)c(Cl)c1 (centres undefined) : max response value = -12.6

GET /value?item= `C#CCO` &field=max response returns 3.2

Notebook: CC1(C)C(C(=O)OC(C#N)c2cccc(Oc3ccccc3)c2)C1(C)C (centres undefined) , max response read as -5.14

Record summary for `CC1=NNC(=O)N(/N=C/c2cccnc2)C1` : reported max response = -7.06

Record `CC(C)COP(=O)(OCC(C)C)OCC(C)C` . Reported max response: -15.8

Summary for this molecule, `CSC1=N[C@@](C)(c2ccccc2)C(=O)N1Nc1ccccc1` : max response is 25.5

molecule `CN1COCN(Cc2cnc(Cl)s2)/C1=N\[N+](=O)[O-]` , max response observed: -27.5

For reference, reported max response for `Cc1cc(C)nc(Nc2ccccc2)n1` stands at 1.3

The molecule O=C1c2ccccc2C(=O)C1C(=O)C(c1ccccc1)c1ccc(Cl)cc1 (centres undefined) showed max response equal to -4.27

Measured max response of `COC(=O)/C=C(\C)OP(=O)(OC)OC` : -22.9

Lab note: measured max response of `Clc1ccc(C(Cl)(Cl)Cl)cc1` was -6.16

Summary for this molecule, `CCOP(=O)(OCC)SCSCC` : max response is -4.7

Item: `CCNc1nc(Cl)nc(NC(C)(C)C#N)n1` | max response: -4.23

For CN/C(=N/[N+](=O)[O-])NCC1CCOC1 (centres undefined) the molecule record lists max response as -9.02

Sample O=C(NC(=O)c1c(F)cccc1F)Nc1cc(Cl)c(OC(F)(F)C(F)C(F)(F)F)c(Cl)c1F (centres undefined) ; max response observed: 23

----------
test system: P93_24; test: qHTS profiling for inhibitors of Plasmodium falciparum proliferation (AID 504749); further: nearly all actives have a fitted effect of over 60% in size; conditions: P. falciparum in erythrocytes, SYBR Green DNA, 72 h; series mostly up to 28.7 µM
Inconclusive results are not listed. The source made the active and inactive calls. The call rests on the fitted dose curve; in most records, active means well fitted inhibition curve with a large enough effect; inconclusive means small, poorly fitted or top-dose-only effect; inactive means flat fitted curve, though single readings scatter.
Hi! Could you answer with just one of these? 1 for active, 0 for inactive

(Q) Hi team, can someone confirm the assay call for C#C[C@]1(O)CC[C@H]2[C@@H]3CCC4=CC(=O)CCC4(C)[C@H]3CCC21C (some centres not stated) ?
(A) 0

(Q) Hi, sorry to bother you, what did the test record for CCOC(=O)/C=C(C)/C=C/CC(C)CCCC(C)C (configuration not stated) ?
(A) 0

(Q) Which outcome did this test record for the compound CC(=O)[C@H]1CC[C@H]2C3CC[C@H]4C[C@H](O)CC[C@]4(C)C3CC[C@]12C (some centres not stated) ?
(A) 0

(Q) So what was the verdict on `C[C@H](N)Cc1ccccc1` in this test?
(A) 0

(Q) How was `C=C1Nc2ccccc2C(=O)N1c1ccccc1C` classified in this test?
(A) 0

(Q) What outcome does the record of this test show for CC(C)=CC1C(C(=O)OCc2coc(Cc3ccccc3)c2)C1(C)C (configuration not stated) ?
(A) 0

(Q) What is the recorded call for this compound in the test? C=CC[N+]1(C)CCC23c4c5ccc(O)c4O[C@H]2C(=O)CC[C@@]3(O)C1C5 (some centres not stated)
(A) 0

(Q) Call for entry Cc1cc(C)cc(C(=O)OC2CC3CCC(C2)N3C)c1 (configuration not stated) :
(A) 0

(Q) Look up the recorded call for COC(C(=O)C(O)C(C)O)C1Cc2cc3cc(OC4CC(OC5CC(O)C(OC)C(C)O5)C(OC(C)=O)C(C)O4)c(C)c(O)c3c(O)c2C(=O)C1OC1CC(OC2CC(OC3CC(C)(O)C(OC(C)=O)C(C)O3)C(O)C(C)O2)C(O)C(C)O1 (configuration not stated) in this test.
(A) 1

(Q) Short answer needed: outcome of this test for `C#CCN1CC(=O)N(COC(=O)[C@@H]2[C@@H](C=C(C)C)C2(C)C)C1=O` ?
(A) 0

(Q) Per the records of this test, what outcome belongs to COC(=O)C1C(OC(=O)c2ccccc2)CC2CCC1N2C (configuration not stated) ?
(A) 0

(Q) For O=C1CC2OCC=C3CN4CCC56c7ccccc7N1C5[C@H]2[C@H]3C[C@H]46 (some centres not stated) (tested in a mixture with another compound) , which call appears in the assay record?
(A) 0

----------
Please go through the items and note down their activation.
assay: qHTS assay for small molecule activators of the p53 signaling pathway (AID 651743); conditions: HCT-116 p53RE-bla, beta-lactamase FRET ratio, 16 h; stronger effect = higher value; further: % of control where 0% means no effect
Inconclusive results are not listed.
The reply should be a number in %, with the unit left off.

The reported activation of the compound CCCCC(CC)C(=O)Cl (configuration not stated) was -0.76

Query `c1cc2c3c(cccc3c1)CC2` yields activation of 5.25

Consider `COC[C@H](C)N(C(=O)CCl)c1c(C)csc1C` . Its measured activation is -5.41

activation for `CCOS(=O)(=O)OCC` is -2.08

Record `CCNc1nc(NCC)nc(SC)n1` . Reported activation: -3.86

Recorded result, `CCc1ccc(C(=O)NN(C(=O)c2cc(C)cc(C)c2)C(C)(C)C)cc1` , activation: 3.11

# activation of `O=C(Nc1ccccc1)Nc1cnns1` = 2.3

All figures here come from PubChem BioAssay (NCATS).
